measurement.target: HLA-A*69:01
assay.remarks: IEDB peptide-MHC binding, purified MHC/competitive/fluorescence; filed as Kd, often an IC50 or EC50 that approximates it; bounds were set here for any values at or beyond the usual limits of such assays
protocol.conditions: source organism: Entamoeba dispar SAW760
pKd: −log10 of the molar value.
value.type: pKd

**Query** Endpoint output: pKd of FELLHFISS . Value?
**Result** ≤ 4.70

====

measurement.target: HLA-B*07:02
assay.remarks: IEDB peptide-MHC binding, purified MHC/competitive/fluorescence; bounds were set here for any values at or beyond the usual limits of such assays
protocol.conditions: source organism: Sudan ebolavirus
value.type: IC50 (µM)
Record the value in µM, omitting the unit from your answer.

**Query** Enter reported IC50 observed with HLA-B*07:02 for RPSSSQIPS
**Result** 10.9

====

measurement.target: HLA-B*15:17
assay.remarks: IEDB peptide-MHC binding, purified MHC/direct/fluorescence; filed as Kd, often an IC50 or EC50 that approximates it; bounds were set here for any values at or beyond the usual limits of such assays
protocol.conditions: source organism: Pseudomonas putida
value.type: pKd
Expect pKd as a plain number equal to -log10 of the molar concentration.

**Query** # lookup: pKd of IVHPPMLYM
**Result** 7.21

====

measurement.target: HLA-B*51:01
assay.remarks: IEDB peptide-MHC binding, purified MHC/competitive/fluorescence; filed as Kd, often an IC50 or EC50 that approximates it; bounds were set here for any values at or beyond the usual limits of such assays
protocol.conditions: source organism: Deerpox virus W-848-83
pKd: −log10 of the molar value.
value.type: pKd

**Query** What does the data say about its pKd? Entry: YVAGITLTH
**Result** ≤ 4.70

====

measurement.target: HLA-B*07:02
assay.remarks: IEDB peptide-MHC binding, purified MHC/competitive/radioactivity; filed as Kd, often an IC50 or EC50 that approximates it; bounds were set here for any values at or beyond the usual limits of such assays
protocol.conditions: source organism: Dengue virus 1 Brazil/97-11/1997
value.type: pKd
pKd here is simply -log10 of the concentration when that concentration is written in mol/L.

| polymer.sequence | experimental.result |
| --- | --- |
| QPMEHKYSW | 6.85 |

**Query** // lookup pKd for RPMFAVGLL
**Result** 8.30

====

measurement.target: HLA-A*26:01
assay.remarks: IEDB peptide-MHC binding, purified MHC/competitive/fluorescence; filed as Kd, often an IC50 or EC50 that approximates it; bounds were set here for any values at or beyond the usual limits of such assays
protocol.conditions: source organism: Orthohantavirus andesense
pKd: −log10 of the molar value.
value.type: pKd

**Query** pKd for VWKQLFPEL ?
**Result** ≤ 4.70

====

Measured Kd values are reported for all entries that follow.
measurement.target: HLA-A*23:01
assay.remarks: IEDB peptide-MHC binding, purified MHC/competitive/radioactivity; filed as Kd, often an IC50 or EC50 that approximates it; bounds were set here for any values at or beyond the usual limits of such assays
protocol.conditions: source organism: Mammarenavirus guanaritoense
The figure you give is taken to be in nM; do not add the unit.

Here's what some known entries look like.
| polymer.sequence | experimental.result |
| --- | --- |
| SWLDFDEKLV | 320 |
| KVINLSELL | 426 |

Now look at this entry.
**Query** Can you share its Kd? I mean this sequence: FFQDIPIFF
**Result** 10.3
